Test system: Escherichia coli TOP10;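 note: peptides expressed intracellularly from a pBAD plasmid library in pooled LB shake-flask culture, induced with 0.3% L-arabinose, DNA abundance read by NGS, three biological replicates, DESeq2 with apeglm shrinkage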
Assay: shrunken log2 fold change of peptide-encoding DNA abundance (4.5 h post-induction vs induction); higher = less antimicrobial activity (less host growth inhibition)
Details: time post-induction: 4.5 h; library: site-saturation at positions 5, 18, 19, 20
Record form. Attribute: shrunken log2 fold change. Fill in for each entry.
Give bare numbers.

// each sequence listed below needs its shrunken log2 fold change
1. RRIRGRPPRLPRPRPRPWEAPRP
2. RRIRWRPPRLPRPRPRPFGIPRP
3. RRIRARPPRLPRPRPRPRNEPRP
4. RRIRARPPRLPRPRPRPKYMPRP
5. RRIRCRPPRLPRPRPRPHHNPRP
6. RRIRGRPPRLPRPRPRPHCDPRP
7. RRIRIRPPRLPRPRPRPSPNPRP

1. -0.0319
2. -0.115
3. 0.557
4. -0.477
5. -0.901
6. 3.63
7. -0.735

// each sequence listed below needs its shrunken log2 fold change
1. RRIRQRPPRLPRPRPRPPMIPRP
2. RRIRKRPPRLPRPRPRPYRPPRP

0.0721
0.0318
